Just for reference, patent US10597388B2 is where these values come from.

# Test system: corn (Zea mays)
# protocol_summary: Test A greenhouse herbicide test, pre- and postemergence
# Type: in vivo
# conditions_used: Postemergence, 125 g ai/ha; 0 to 100 scale where 0 is no effect and 100 is complete control
property_label: Plant response rating, Corn
Answers are plain numbers.

chemical_structure: Cc1ccc2ccccc2c1-c1c(OC(=O)C(C)(C)C)c(C#N)nn(C)c1=O
val: 0

chemical_structure: Cc1sc2ccccc2c1-c1c(O)cnn(C)c1=O
val: 0

chemical_structure: COC(=O)Oc1c(C)nn(C)c(=O)c1-c1c(C(F)(F)F)ccc2ccccc12
val: 20

chemical_structure: Cc1nn(C)c(=O)c(-c2ccc(Cl)c3ccccc23)c1O
val: 30

Lookup result for Cc1sc2ccccc2c1-c1c(O)c(Cl)nn(C)c1=O ; measured Plant response rating, Corn: 0

====

Would you mind telling me the reported Plant response rating, Ryegrass, Italian of each entry?
# Test system: ryegrass, Italian (Italian ryegrass, Lolium multiflorum)
# protocol_summary: Test C greenhouse herbicide test, pre- and postemergence
# Format: in vivo
# conditions_used: Postemergence, 250 g ai/ha; scale 0 to 100, 0 no effect, 100 complete control; 13 to 15 d
Give bare numbers.

Worked examples follow.
chemical_structure: CC(=O)Oc1c(C)nn(C)c(=O)c1-c1c(C)sc2ccc(Cl)cc12
val: 90
//
chemical_structure: CC(=O)Oc1c(C)nn(C)c(=O)c1-c1c(C)cc(C)c2ccccc12
val: 95
//
chemical_structure: Cc1nn(C)c(=O)c(-c2c(C)sc3ccc(Br)cc23)c1O
val: 90
//
chemical_structure: Cc1nn(C)c(=O)c(-c2ccc(F)c3ccccc23)c1O
val: 90

Would you kindly look at the next entry?
Lookup result for CCC(=O)Oc1c(C)nn(C)c(=O)c1-c1ccc(Br)c2ccccc12 ; measured Plant response rating, Ryegrass, Italian: 40

====

# Tested on: chickweed (common chickweed, Stellaria media)
# protocol_summary: Test C greenhouse herbicide test, postemergence
# Format: in vivo
# conditions_used: Postemergence, 31 g ai/ha; scale 0 to 100 (0 no effect, 100 complete control)
property_label: Plant response rating, Chickweed
Numbers only.

Worked examples follow.
compound: COC(=O)Oc1c(C)nn(C)c(=O)c1-c1ccc(F)c2ccccc12 [Compound 130]
val: 90

compound: CCCC(=O)Oc1c(C)nn(C)c(=O)c1-c1c(C)sc2ccc(C)cc12 [Compound 105]
val: 90

compound: Cc1nn(C)c(=O)c(-c2c([N+](=O)[O-])ccc3ccccc23)c1O [Compound 165]
val: 70

compound: Cc1ccc2ccccc2c1-c1c(O)c(C(F)(F)F)nn(C)c1=O [Compound 102]
val: 95

compound: Cc1nn(C)c(=O)c(-c2c(C)sc3ccc(C(F)(F)F)cc23)c1O [Compound 121]
val: 90

Lookup result for CC(=O)Oc1c(C)nn(C)c(=O)c1-c1c(C)sc2ccc(C(F)(F)F)cc12 [Compound 132] ; measured Plant response rating, Chickweed: 90

====

# System: morningglory (Ipomoea coccinea)
# protocol_summary: Test C greenhouse herbicide test, pre- and postemergence
# Format: in vivo
# conditions_used: Preemergence, 125 g ai/ha; scale 0 to 100, 0 is no effect, 100 is complete control
Would you mind telling me the reported Plant response rating, Morningglory of each entry?
Give bare numbers.

Worked examples follow.
chemical_structure: COC(=O)Oc1c(OC)nn(C)c(=O)c1-c1c(C)ccc2ccccc12
Plant response rating, Morningglory: 98

chemical_structure: Cc1cc(C)c2ccccc2c1-c1c(O)c(C)nn(C)c1=O
Plant response rating, Morningglory: 100

chemical_structure: CC(=O)Oc1c(C)nn(C)c(=O)c1-c1c(C)cc(C)c2ccccc12
Plant response rating, Morningglory: 90

chemical_structure: Cc1ccc2ccccc2c1-c1c(OC(=O)OC(C)C)c(C)nn(C)c1=O
Plant response rating, Morningglory: 90

chemical_structure: CC(=O)Oc1c(Cl)nn(C)c(=O)c1-c1c(C)sc2ccc(Cl)cc12
Plant response rating, Morningglory: 85

Respectfully, I request Plant response rating, Morningglory for each entry included below.
1. CCC(=O)Oc1c(OC)nn(C)c(=O)c1-c1c(C)sc2ccc(Cl)cc12
2. Cc1nn(C)c(=O)c(-c2ccc(Br)c3ccccc23)c1O
3. Cc1nn(C)c(=O)c(-c2cccc3ccccc23)c1O

[out]
1. 85
2. 95
3. 100
